# Test system: Enterococcus faecalis
# procedure-text: Antimicrobial activity against Enterococcus faecalis ATCC 19433 after 18 to 24 hrs by liquid broth method
# Type: functional
The entries below are paired with their reported MIC.
outcome-measure: MIC (µg/mL)

INSERT INTO assay_data (molecule, op, recorded_number) VALUES
  ('O=S(=O)(c1ccc(Cl)cc1)c1ccc(-c2nc3scc(-c4ccc(Br)cc4)n3n2)cc1', '>', 1020),
  ('O=C(CSc1nnc(-c2ccc(S(=O)(=O)c3ccc(Br)cc3)cc2)[nH]1)c1ccc(Br)cc1', '=', 128),
  ('O=S(=O)(c1ccc(Br)cc1)c1ccc(-c2nc3scc(-c4ccccc4)n3n2)cc1', '=', 256),
  ('O=S(=O)(c1ccc(Br)cc1)c1ccc(-c2nc3scc(-c4ccc(Br)cc4)n3n2)cc1', '=', 256),
  ('O=S(=O)(c1ccc(Br)cc1)c1ccc(-c2nnc(S)[nH]2)cc1', '=', 256),
  ('O=C(CSc1nnc(-c2ccc(S(=O)(=O)c3ccccc3)cc2)[nH]1)c1ccccc1', '=', 256),
  ('O=C(CSc1nnc(-c2ccc(S(=O)(=O)c3ccc(Br)cc3)cc2)[nH]1)c1ccccc1', '=', 256),
  ('CC1(C)S[C@@H]2[C@H](NC(=O)[C@H](N)c3ccccc3)C(=O)N2[C@H]1C(=O)O [AMPICILLIN]', '=', 0.5),
  ('O=C(CSc1nnc(-c2ccc(S(=O)(=O)c3ccc(Cl)cc3)cc2)[nH]1)c1ccccc1', '=', 256);

FYI, the data here is from ChEMBL document CHEMBL1153792.
